- Test system: M14 melanoma
- ASSAY_EXPLANATION: NCI-60 one-dose screen, 48 h (100 = growth as untreated, 0 = no growth, -100 = all killed)
- CONDITION_SET: 10 µM
The panel holds about 83,000 compounds, 20% with a hit somewhere; the sample as a whole holds those more often.
Kindly state growth for each of the entries shown.
// note: answer is a bare numeric in %

[ask] # query: growth of entry CCOc1cc(Br)c(C(C)NC(=O)c2cccc(OC)c2)cc1OCC (stereo unspecified)
[reply] -67.2

[ask] How about COc1ccc2nc(NC(=O)Nc3c(F)cccc3F)sc2c1 ?
[reply] 104

[ask] Likewise for O=C(OCC1OC(n2cc(C(F)(F)F)c(=O)[nH]c2=O)CC1OC(=O)c1ccc([N+](=O)[O-])cc1)c1ccc([N+](=O)[O-])cc1 (stereo unspecified) ?
[reply] -17.6

[ask] # repeat for Cc1cn(C(=O)/C(Cl)=C(/Cl)C(=O)O)c2ccccc12
[reply] 99.7

[ask] One more compound: CCc1nn2c(-c3ccccc3)c(-c3cc(OC)c(OC)c(OC)c3)nc2s1
[reply] 99.1

[ask] And for COc1cc(OC)cc(N2CCN(C(=O)Nc3nc4cc(F)ccc4nc3OC)CC2)c1 ?
[reply] 1.15

###

- Tested on: SF-268 CNS
- ASSAY_EXPLANATION: NCI-60 one-dose screen, 48 h
- CONDITION_SET: 10 µM
- Method: Cells are grown in 96 well plates and exposed to the test compound for 48 hours. Compounds are tested at a single concentration, which is 10^-5 M for most compounds. The reported endpoint is percent growth (GI% or GIPRCNT), where numbers from 0 - 100% represent growth inhibition, and numbers from -100% - 0 represent cell death. For example, a value of 40 represents 60% growth inhibition. A value of 0 means no net growth occurred over the course of the experiment. […]
This is part of a sample that, as a whole, favours compounds with a hit. Of some 83,000 tested, about 20% had one in any assay. The source made the active and inactive calls. The calls were made as follows: active = growth percent below 10; inactive = the rest.
Hi! Could you answer with just one of these? label 1 = active, label 0 = inactive

[ask] Assay outcome for N#Cc1cnc2ccc(NCc3cnc[nH]3)cc2c1Nc1ccc(F)c(Cl)c1 : what was it?
[reply] label 0

[ask] Now give it for COCCNCC(O)Cn1c2ccc(Cl)cc2c2cc(Cl)ccc21 (stereo not drawn) too.
[reply] label 1

[ask] Continue with CCSc1nc2c([nH]1)c(=O)n(C)c(=S)n2C
[reply] label 0

###

- Tested on: SR leukemia
- ASSAY_EXPLANATION: NCI-60 one-dose screen, 48 h
- CONDITION_SET: 10 µM
Compounds without any hit were thinned out: in the full panel of roughly 83,000, 20% have a hit. Calls of active or inactive are those of the source. The calls were made as follows: active = growth percent below 10; inactive = the rest.
Outcomes you can answer with include only these: active, inactive

[ask] Kindly provide the recorded test outcome for the following compound: O=S(=O)(NC1c2ccccc2Oc2ccccc21)c1ccccc1
[reply] inactive

[ask] And Cc1ccc(C)c(S(=O)(=O)NC2c3ccccc3Oc3ccccc32)c1 ?
[reply] inactive

[ask] Please answer likewise for CCn1nc(-c2ccc(C(=O)OC)cc2)nc2c(=O)n(C)c(=O)nc1-2
[reply] active

[ask] Try this compound too: CCC1(C)OC(=O)NC1=O (configuration not stated)
[reply] inactive

[ask] Entry C=CCNC(=S)NN please
[reply] inactive

[ask] Now this one: Cc1nc(Nc2nc3ccccc3o2)nc(-c2cccc([N+](=O)[O-])c2)c1C(=O)Nc1ccc(F)c(Cl)c1
[reply] active

[ask] Moving on to O=C1/C(=C/c2ccc(O)cc2)CSc2ccc(Cl)cc21
[reply] inactive

[ask] Now the compound O=C(C=P(c1ccccc1)(c1ccccc1)c1ccccc1)c1ccc(Br)cc1
[reply] inactive

[ask] Now consider Cc1[nH]nc2c(=S)[nH]c(=O)[nH]c12 and answer again.
[reply] inactive

[ask] Another compound to check: C[C@@H]1N=C(c2ccc(Br)cc2)Nc2nc3ccccn3c2C1=O
[reply] inactive

[ask] Same lookup for COc1ccc(/C(=C/c2cc(OC)c(OC)cc2[N+](=O)[O-])C(=O)O)cc1 , please.
[reply] inactive

[ask] How about CC(C)(C)c1ccc(OCCCCCCN2CCNCC2)cc1 ?
[reply] active

###

- Test system: RPMI-8226 leukemia
- ASSAY_EXPLANATION: NCI-60 one-dose screen, 48 h
- CONDITION_SET: 10 µM
Compounds without any hit were thinned out: in the full panel of roughly 83,000, 20% have a hit. The source made the active and inactive calls. The calls were made as follows: active = growth percent below 10; inactive = the rest.
Hi there, use one of these labels in your reply, thanks! active, inactive

[ask] Entry O=c1oc2c3ccc4cnccc4c3[nH]c2c2ccccc12 : call = ?
[reply] active

[ask] Item: O=C(NC1CCN(Cc2ccccc2)CC1)c1cc(-c2ccncc2)nc2ccc(Cl)cc12
[reply] inactive

[ask] Same lookup for O=C(N/N=C\c1cc(Cl)ccc1O)c1ccncc1 , please.
[reply] inactive

[ask] Do the same for O=C(O)c1ccc(CNc2ccc(C(=O)CCl)cc2)cc1 please
[reply] inactive

[ask] Moving on to COC(=O)[C@]12CC[C@@H](C)[C@H](C)[C@@H]1C1=CC[C@@H]3[C@@]4(C)CC(=O)[C@H](O)[C@@]5(C)COC(=C45)C[C@@]3(C)[C@]1(C)CC2
[reply] active

[ask] And then CCCN(CCC)CCCNC(=O)c1cc2c(-c3ccc(OC)c(OC)c3)nn(C)c2s1 , what is it?
[reply] active

[ask] Okay, and C=CCOc1ccc2c(c1)CC[C@@H]1[C@@H]2CC[C@]2(C)C(=O)/C(=N/O)C[C@@H]12 ?
[reply] inactive

[ask] Please do the same for CCOC(=O)c1ccc(N(C=O)CCC(=O)CCl)cc1 as well.
[reply] active

[ask] What do we get for CCOC(=O)[C@@H]1[C@H](c2ccccc2)[C@H]([N+](=O)[O-])[C@H](c2cn(-c3ccccc3)nc2C)N1Cc1ccccc1 ?
[reply] inactive

[ask] Subsequent entry: Cc1ccc(NC(=O)/C=N/O)cc1C
[reply] inactive

[ask] Quick one: CC(=O)OC1Oc2ccccc2-c2oc(=O)c(-c3ccc(F)cc3)cc21 (stereo unspecified)
[reply] inactive

[ask] Further, for COc1cc(C(=O)n2nc(N)c3c(C)cc(C)nc32)cc(OC)c1OC ?
[reply] inactive

[ask] # iterate: CCCCc1ccc(NC(=O)N(CCCl)N=O)cc1
[reply] inactive

[ask] Another molecule to check: COc1ccc(CCc2nc3cc(-c4c(C)noc4C)ccc3n2CCN2CCOCC2)cc1
[reply] active

[ask] Now consider O=C(O)CCCN1C(=O)NC2(C1=O)c1ccccc1-c1ccccc12 and answer again.
[reply] inactive

[ask] Another molecule to check: CNC(=O)c1cc(Oc2ccc(NC(=O)Nc3ccc(Cl)c(C(C)(C)C)c3)c(F)c2)ccn1
[reply] inactive

[ask] # iterate: Nc1nc2c(ncn2C2OC3COP(=O)(O)OC4C(COP(=O)(O)OC2C3O)OC(n2cnc3c(N)ncnc32)C4O)c(=O)[nH]1 (stereo unspecified)
[reply] inactive

[ask] Query COc1cc(Cn2c(-c3ccccc3)c(Cl)c3c2-c2oncc2CC3)cc(OC)c1 next
[reply] inactive

[ask] Same question, Cc1noc(C)c1-c1ccc2nc(NC(=O)[C@H]3CCN(C#N)C3)cn2c1 this time
[reply] inactive

[ask] What do you have for COc1cc(OC)cc(-c2n/c(=C\c3c(O)[nH]c4ccc(OC)cc34)cc3c2=Nc2ccccc2-3)c1 ?
[reply] inactive

[ask] Queued: COc1cc(-c2n/c(=C\c3c(O)[nH]c4ccccc34)cc3c2=Nc2ccccc2-3)cc(OC)c1OC
[reply] inactive

[ask] Quick one: O=C(NCCCl)c1cc(Cl)cc(Cl)c1
[reply] inactive

[ask] Cool, now CC(C)C[C@H](NC(=O)Cn1ccc(Nc2ccccc2)cc1=O)B(O)O
[reply] active

[ask] Let us now turn to CC(=O)CS(C)(=O)=O
[reply] inactive

[ask] Now this one: CCN1CCOC1C(C)C (stereo unspecified)
[reply] inactive

[ask] Also need COc1cc(-c2nc3ccccc3[nH]2)ccc1OCC(=O)N=Nc1c(O)[nH]c2ccccc12 , thanks.
[reply] inactive

###

- Test system: CAKI-1 renal
- ASSAY_EXPLANATION: NCI-60 one-dose screen, 48 h (100 = growth as untreated, 0 = no growth, -100 = all killed)
- CONDITION_SET: 10 µM
About 83,000 compounds went through this panel and 20% of them were active in at least one assay; those are over-represented in the sample as a whole.
OBSERVED_PROPERTY: growth (%)
Write down the numeric answer in % and omit the unit.

[ask] Given the entry O=C1CC(c2cccc(-c3cccnc3)c2)=Nc2ccc(Br)cc2N1 , report its measured growth.
[reply] 49.9

[ask] # repeat for CCOC(=O)c1ccc(NC(=O)Nc2nncs2)cc1
[reply] 24.9

[ask] # iterate: COc1ccc2oc(=O)cc(C(c3ccc[nH]3)c3ccc[nH]3)c2c1
[reply] 15.2
